test system: Trypanosoma brucei; assay: Antitrypanosomal activity against bloodstream form of Trypanosoma brucei 427-221a assessed as increase in iono-phoresis by measuring cell swelling at 100 uM measured every 10 mins for 1 hr by light scattering based microplate reader analysis; assay type: functional, organism-based
The source made the active and inactive calls. No cut-off for these calls is given here.
# valid calls are active, inactive; nothing else

**Query** Call for entry "CC[C@@H](C(=O)[C@@H](C)[C@@H](O)[C@H](C)[C@@H]1O[C@@H]([C@@H](CC)C(=O)O)CC[C@@H]1C)[C@H]1O[C@]2(C=CC(=O)[C@]3(CC[C@@](C)([C@H]4CC[C@](O)(CC)[C@H](C)O4)O3)O2)[C@H](C)C[C@@H]1C" :
**Result** active

**Query** Call for entry "CC[C@@H](C(=O)[C@@H](C)[C@@H](O)[C@H](C)[C@@H]1O[C@@H]([C@@H](CC)C(=O)ONC(=O)c2ccccc2O)CC[C@@H]1C)[C@H]1O[C@]2(C=C[C@@H](O)[C@]3(CC[C@@](C)([C@H]4CC[C@](O)(CC)[C@H](C)O4)O3)O2)[C@H](C)C[C@@H]1C" :
**Result** inactive

**Query** Call for entry "CC[C@@H](C(=O)[C@@H](C)[C@@H](O)[C@H](C)[C@@H]1O[C@@H]([C@@H](CC)C(=O)ONC(=O)c2ccccc2O)CC[C@@H]1C)[C@H]1O[C@]2(C=CC(=O)[C@]3(CC[C@@](C)([C@H]4CC[C@](O)(CC)[C@H](C)O4)O3)O2)[C@H](C)C[C@@H]1C" :
**Result** inactive

**Query** Call for entry "C#CCN[C@@H]1C=C[C@]2(O[C@H]([C@@H](CC)C(=O)[C@@H](C)[C@@H](O)[C@H](C)[C@@H]3O[C@@H]([C@@H](CC)C(=O)O)CC[C@@H]3C)[C@@H](C)C[C@H]2C)O[C@@]12CC[C@@](C)([C@H]1CC[C@](O)(CC)[C@H](C)O1)O2" :
**Result** active

**Query** Call for entry "CC[C@@H](C(=O)[C@@H](C)[C@@H](O)[C@H](C)[C@@H]1O[C@@H]([C@@H](CC)C(=O)ONC(=O)c2ccccc2)CC[C@@H]1C)[C@H]1O[C@]2(C=CC(=O)[C@]3(CC[C@@](C)([C@H]4CC[C@](O)(CC)[C@H](C)O4)O3)O2)[C@H](C)C[C@@H]1C" :
**Result** inactive
